meta.source: the supplement of paper PMC10567573

B1: ESRRA (parent)
chain: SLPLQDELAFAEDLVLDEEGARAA

Variants of: B1
Test: protein stability index of a GFP-peptide fusion (GPS, HEK-293T) (PSI 1-6); higher = more stable;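 note: lentivirally expressed fusions sorted by FACS into six bins by GFP to DsRed ratio, PSI derived from sequencing read proportions per bin multiplied by bin number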
Details: c terminus: a fixed tail appended
Assign protein stability index to each entry below.
Give bare numbers.

Some variants with recorded protein stability index:
mutant	value.kind	numeric.result
L4M	protein stability index	3.51
Q5D	protein stability index	5.44
L2K	protein stability index	4.4
E19P	protein stability index	4.02
D6W	protein stability index	2.78
S1Y	protein stability index	2.78
L8R	protein stability index	5.66
F10Q	protein stability index	3.98
D13A	protein stability index	3.48
E7M	protein stability index	3.26

For every item below, please supply its protein stability index.
1. E12G
2. L8V
3. A24C
4. A23R
5. L14P
6. L4W
7. E19Q

1: 4.91; 2: 5.84; 3: 2.94; 4: 2.83; 5: 5.8; 6: 5.32; 7: 2.56
